Reported amyloid nucleation score values for the following substances.
- ASSAY_TEXT: amyloid nucleation score (Sup35N fusion, yeast selection) (log enrichment); library NNK1; higher = more nucleation; inactive = no reads after selection;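 further: zero at mode of non-aggregating sequences after 7 days selection at 30°C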

{"SUBSTANCE": "SVNTPTGSIFEICQYDSIKG", "amyloid nucleation score": -0.302}
{"SUBSTANCE": "ISFLFMCYLWQGNNS", "amyloid nucleation score": 6.24}
{"SUBSTANCE": "LALFIDWQ", "amyloid nucleation score": 1.53}
{"SUBSTANCE": "SRTICGSEILTSKKTRFHAS", "amyloid nucleation score": -0.702}
{"SUBSTANCE": "NFTSRYEANFTVFSFRAWRL", "amyloid nucleation score": 0.297}
{"SUBSTANCE": "RMFEVARSSKRSLFHSILET", "amyloid nucleation score": 0.109}
{"SUBSTANCE": "RALLMTMKFNKMGSFNIESN", "amyloid nucleation score": 1.77}
{"SUBSTANCE": "NECDVALIRWWG", "amyloid nucleation score": 0.419}
{"SUBSTANCE": "LKTGGSPNLVANYMYDRCAG", "amyloid nucleation score": 0.581}
{"SUBSTANCE": "VHESTSHRMWRSLI", "amyloid nucleation score": 1.15}
{"SUBSTANCE": "LTSGLI", "amyloid nucleation score": 0.807}
{"SUBSTANCE": "MRTVIITCCRTFECPMERCS", "amyloid nucleation score": -2.56}
{"SUBSTANCE": "GVGDTNCSEL", "amyloid nucleation score": 0.178}
{"SUBSTANCE": "GSRHFRDSVLSDVNVWYLKN", "amyloid nucleation score": -0.026}
{"SUBSTANCE": "SLPVLCASRYHLHYRMGFSG", "amyloid nucleation score": 1}
{"SUBSTANCE": "TCLWSYSNAFENPR", "amyloid nucleation score": 1.85}
{"SUBSTANCE": "YFWLNTNTLCSYWRMRHWVS", "amyloid nucleation score": 0.524}

----------
Reported amyloid nucleation score by item:
- ASSAY_TEXT: amyloid nucleation score (Sup35N fusion, yeast selection) (log enrichment); library NNK1; higher = more nucleation; inactive = no reads after selection
OBSERVATION_TYPE: amyloid nucleation score

{"SUBSTANCE": "VLRNDTMGAGANF", "MEASURED_RESULT": -1.3}
{"SUBSTANCE": "AGRMEGYESEGPPGHA", "MEASURED_RESULT": 0.187}
{"SUBSTANCE": "GYCLVYLAIGGFARILGYPV", "MEASURED_RESULT": -0.461}
{"SUBSTANCE": "FTNASDYYELVLHCRGAEKE", "MEASURED_RESULT": 0.523}
{"SUBSTANCE": "FGKGNEGTIGNI", "MEASURED_RESULT": -0.22}
{"SUBSTANCE": "PFGVVGDVFQSTLC", "MEASURED_RESULT": 0.371}
{"SUBSTANCE": "LGSMSPVGLTKYLGDGEEVV", "MEASURED_RESULT": -0.036}
{"SUBSTANCE": "LWPDTDPIGGE", "MEASURED_RESULT": -0.74}
{"SUBSTANCE": "LLAFYSVTFVSRWILQCYML", "MEASURED_RESULT": -0.498}
{"SUBSTANCE": "HYSNVKTGGKSGKWEIRDLE", "MEASURED_RESULT": -0.559}
{"SUBSTANCE": "DLTVWSTIFDSMSTCEHRGG", "MEASURED_RESULT": 0.257}
{"SUBSTANCE": "IYASSLTDGFTVVWCLNQY", "MEASURED_RESULT": 5.05}
{"SUBSTANCE": "WVWDGDIGGWNVKPFHRVRG", "MEASURED_RESULT": 0.121}
{"SUBSTANCE": "LGPVLFKLLRETCAQSYKVM", "MEASURED_RESULT": -0.005}
{"SUBSTANCE": "CFMETYSWKVRYTLFHKLST", "MEASURED_RESULT": 0.552}
{"SUBSTANCE": "CCGGECLRVYRIMLGTVECT", "MEASURED_RESULT": 0.329}
{"SUBSTANCE": "VILTYGTVRY", "MEASURED_RESULT": 0.38}
{"SUBSTANCE": "GANKTWCYKSSQCVISDGLG", "MEASURED_RESULT": -0.103}
{"SUBSTANCE": "GYNGCYNIFVHRSDKMAALR", "MEASURED_RESULT": 0.515}
{"SUBSTANCE": "STDLSYVSCAYVSTFLPNFR", "MEASURED_RESULT": 2.2}
{"SUBSTANCE": "AKVRKNYTFLHLSPLGRGFD", "MEASURED_RESULT": 0.321}
{"SUBSTANCE": "YFSHTSWLYFSTPFIVVVRV", "MEASURED_RESULT": 0.25}
{"SUBSTANCE": "GGSLVSGSFDKYSYSKYRLW", "MEASURED_RESULT": -0.128}
{"SUBSTANCE": "MFRWHVLGKKITP", "MEASURED_RESULT": -0.067}
{"SUBSTANCE": "KMGWLRH", "MEASURED_RESULT": -0.566}
{"SUBSTANCE": "SVLCELRV", "MEASURED_RESULT": -0.182}
{"SUBSTANCE": "FTCKWRVGFWTPVSDPV", "MEASURED_RESULT": -1.27}
{"SUBSTANCE": "GVGRRMSMWYVCDAGWEAWR", "MEASURED_RESULT": 3.16}
{"SUBSTANCE": "IAGRRPALYRVWNSRCSLLN", "MEASURED_RESULT": 0.014}
{"SUBSTANCE": "QGRTRSYY", "MEASURED_RESULT": -0.301}
{"SUBSTANCE": "HLDCGCRTFGLTWYWTKDCV", "MEASURED_RESULT": -0.143}
{"SUBSTANCE": "GSDVREWLVQQSKSMFLWVW", "MEASURED_RESULT": -0.226}
{"SUBSTANCE": "SQIYTFVDLFLSS", "MEASURED_RESULT": 1.26}
{"SUBSTANCE": "HLHFTILY", "MEASURED_RESULT": 2.55}
{"SUBSTANCE": "DCKLGISGIDLVNRFLYPCM", "MEASURED_RESULT": 1.33}
{"SUBSTANCE": "RVVSCMTSRMLWSMRDPIYY", "MEASURED_RESULT": 0.217}
{"SUBSTANCE": "VWISWMSRISITRLCVWGSV", "MEASURED_RESULT": 0.379}
{"SUBSTANCE": "ALHVGLNSFPGMSRYV", "MEASURED_RESULT": 0.212}
{"SUBSTANCE": "ISVMEFFVISGFTNWVKCFV", "MEASURED_RESULT": 1.06}
{"SUBSTANCE": "KWSSRCQWDWTLLGTCLAL", "MEASURED_RESULT": 0.29}
{"SUBSTANCE": "RRRCYVVSCCLVALACLACF", "MEASURED_RESULT": 0.412}
{"SUBSTANCE": "TSCSLYIVMRCVWCIYRGAR", "MEASURED_RESULT": -0.866}
{"SUBSTANCE": "VIVHIWRET", "MEASURED_RESULT": 3.92}
{"SUBSTANCE": "RIIGHLKFIMIRNNVSLCDM", "MEASURED_RESULT": -0.146}
{"SUBSTANCE": "KLFSWADHGGEGFEWMQLTT", "MEASURED_RESULT": -0.026}
{"SUBSTANCE": "SYECVQNRQCAIGGNRSERF", "MEASURED_RESULT": 0.666}
{"SUBSTANCE": "VGWGAMQGLMSGGLYIPV", "MEASURED_RESULT": -0.671}
{"SUBSTANCE": "LVENLWTLRRRLVGALF", "MEASURED_RESULT": 0.31}
{"SUBSTANCE": "ISLISYFFSFLWLYYYFFEF", "MEASURED_RESULT": 1.06}
{"SUBSTANCE": "SSSFTSNSFLLLLWSYKDMF", "MEASURED_RESULT": 1.16}
{"SUBSTANCE": "TSLVVYYTSWV", "MEASURED_RESULT": -1.55}
{"SUBSTANCE": "LDETIQSNRDTHLCQFA", "MEASURED_RESULT": -0.29}
{"SUBSTANCE": "NYHLGCCNISMF", "MEASURED_RESULT": 7.86}
{"SUBSTANCE": "HRCPLTGFSSL", "MEASURED_RESULT": 0.022}
{"SUBSTANCE": "AKYPMQRLLRFLFLVVR", "MEASURED_RESULT": 0.374}
{"SUBSTANCE": "FTVLWCRSMLGC", "MEASURED_RESULT": -0.111}
{"SUBSTANCE": "LHNERRSVISTPYRQSEAGL", "MEASURED_RESULT": 0.707}
{"SUBSTANCE": "FEGNQDIYMVRTWKDKMRLV", "MEASURED_RESULT": -0.107}
{"SUBSTANCE": "CDRLIKVSYRFIGAADRRWM", "MEASURED_RESULT": 1.35}
{"SUBSTANCE": "VFESIVNGQVMMTLN", "MEASURED_RESULT": -1.92}
{"SUBSTANCE": "LMSASNLNAVSKQCIRLRRC", "MEASURED_RESULT": 1.48}
{"SUBSTANCE": "RSFVSEGYFGCWDRDTDYTD", "MEASURED_RESULT": -0.894}
{"SUBSTANCE": "FEVNFPAYIYWSDCPVVGVS", "MEASURED_RESULT": -0.127}
{"SUBSTANCE": "RLTCFRGLGNIYIELINMVN", "MEASURED_RESULT": -0.376}
{"SUBSTANCE": "WADTPRQLGCSSSSTISCSL", "MEASURED_RESULT": -0.216}
{"SUBSTANCE": "EILFFEFFKNEFLYCHKMLC", "MEASURED_RESULT": 0.902}
{"SUBSTANCE": "VPSSTVVDHSIYRGDMPSFA", "MEASURED_RESULT": 0.163}
{"SUBSTANCE": "MYGITKSA", "MEASURED_RESULT": 0.195}
{"SUBSTANCE": "KVLTRPG", "MEASURED_RESULT": -0.213}
{"SUBSTANCE": "HIVVFKYVCYSHEAVYWRPE", "MEASURED_RESULT": 0.305}
{"SUBSTANCE": "DFCVPHGNCFLA", "MEASURED_RESULT": -0.747}
